- method_description: Stability of peptides in simulated intestinal fluid (pH 7.5)
- Assay type: in vitro ADME
- reported_conditions: simulated intestinal fluid, 24 h, 2 μM, pH 7.5
Where a SMILES comes first, the peptide text is derived from it. [ ]: non-standard residue; d: D form. ξ: configuration not given here. αMePhe(2,6-F2) = C[C@](N)(Cc1c(F)cccc1F)C(=O)O; ξαMePhe(2,6-F2) = CC(N)(Cc1c(F)cccc1F)C(=O)O; αMePhe(2-F) = C[C@](N)(Cc1ccccc1F)C(=O)O; ξαMePhe(2-F) = CC(N)(Cc1ccccc1F)C(=O)O; hArg = N=C(N)NCCCC[C@H](N)C(=O)O; Cit = NC(=O)NCCC[C@H](N)C(=O)O; Nle = CCCC[C@H](N)C(=O)O; Orn = NCCC[C@H](N)C(=O)O; Ac5c = NC1(C(=O)O)CCCC1; Aib = CC(C)(N)C(=O)O
property_name: % degradation of peptides in 24 h when incubated with simulated intestinal fluid (%)
Express your answer in %, writing the number without its unit.

compound	quantitative_readout
CCCC[C@H](NC(=O)C(C)(Cc1ccccc1F)NC(=O)[C@H](CCC(N)=O)NC(=O)[C@@H](NC(=O)[C@H](CCC(=O)O)NC(=O)C(C)(C)NC(=O)[C@@H](NC(=O)C(C)(C)N)C(C)C)[C@@H](C)CC)C(=O)N[C@@H](Cc1c[nH]cn1)C(=O)N[C@@H](CCC(N)=O)C(=O)NC(C)(C)C(=O)NC(C)(C)C(=O)NC(C)(Cc1c(F)cccc1F)C(=O)NC(C)(Cc1ccccc1F)C(N)=O (stereo partly shown) [Seq. ID. 570] (H-[Aib]V[Aib]EIQ[ξαMePhe(2-F)][Nle]HQ[Aib][Aib][ξαMePhe(2,6-F2)][ξαMePhe(2-F)]-NH2)	100
CCCC[C@H](NC(=O)C(C)(Cc1ccccc1F)NC(=O)[C@H](CCC(N)=O)NC(=O)[C@@H](NC(=O)[C@H](CCC(=O)O)NC(=O)C(C)(C)NC(=O)[C@@H](NC(=O)C1(N)CCCC1)C(C)C)[C@@H](C)CC)C(=O)N[C@@H](Cc1c[nH]cn1)C(=O)N[C@@H](CCC(N)=O)C(=O)N[C@@H](CCCNC(N)=O)C(=O)NC(C)(C)C(=O)NC(C)(Cc1c(F)cccc1F)C(=O)NC(C)(Cc1ccccc1F)C(N)=O (stereo partly shown) [Seq. ID. 380] (H-[Ac5c]V[Aib]EIQ[ξαMePhe(2-F)][Nle]HQ[Cit][Aib][ξαMePhe(2,6-F2)][ξαMePhe(2-F)]-NH2)	00
CCCC[C@H](NC(=O)[C@](C)(Cc1ccccc1F)NC(=O)[C@H](CCC(N)=O)NC(=O)[C@@H](NC(=O)[C@H](CCC(=O)O)NC(=O)C(C)(C)NC(=O)[C@@H](NC(=O)C(C)(C)N)C(C)C)[C@@H](C)CC)C(=O)N[C@@H](Cc1c[nH]cn1)C(=O)N[C@@H](CCC(N)=O)C(=O)N[C@@H](CCCCNC(=N)N)C(=O)NC(C)(C)C(=O)N[C@@H](CCCNC(N)=O)C(=O)N[C@@](C)(Cc1c(F)cccc1F)C(N)=O [Seq. ID. 142] (H-[Aib]V[Aib]EIQ[αMePhe(2-F)][Nle]HQ[hArg][Aib][Cit][αMePhe(2,6-F2)]-NH2)	50

Now consider the entry below.
Lookup: # input compound: CCCC[C@H](NC(=O)C(C)(Cc1ccccc1F)NC(=O)[C@H](CCC(N)=O)NC(=O)[C@@H](NC(=O)[C@H](CCC(=O)O)NC(=O)C(C)(C)NC(=O)[C@@H](NC(=O)C(C)(C)N)C(C)C)[C@@H](C)CC)C(=O)N[C@@H](Cc1c[nH]cn1)C(=O)N[C@@H](CCC(N)=O)C(=O)N[C@@H](CCCN)C(=O)NC(C)(C)C(=O)N[C@@H](CCCNC(N)=O)C(=O)NC(C)(Cc1c(F)cccc1F)C(N)=O (stereo partly shown) [Seq. ID. 290] (H-[Aib]V[Aib]EIQ[ξαMePhe(2-F)][Nle]HQ[Orn][Aib][Cit][ξαMePhe(2,6-F2)]-NH2) ; wanted: its % degradation of peptides in 24 h when incubated with simulated intestinal fluid
Found: 100
